B1: FAM46D (parent)
chain: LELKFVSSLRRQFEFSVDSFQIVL

- Variants of: B1
- TEST_SUMMARY: protein stability index of a GFP-peptide fusion (GPS, HEK-293T) (PSI 1-6); higher = more stable;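 note: lentivirally expressed fusions sorted by FACS into six bins by GFP to DsRed ratio, PSI derived from sequencing read proportions per bin multiplied by bin number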
- SETUP_CONDITIONS: c terminus: a fixed tail appended
Criterion: protein stability index meeting or surpassing 3. Met: label 1. Not met: label 0.

mutation=F5T answer_label="label 0"
mutation=D18Y answer_label="label 1"
mutation=K4E answer_label="label 0"
mutation=L1H answer_label="label 0"
mutation=E14C answer_label="label 1"
mutation=V17M answer_label="label 1"
mutation=K4Q answer_label="label 1"
mutation=D18W answer_label="label 1"
mutation=S7N answer_label="label 0"
mutation=L9N answer_label="label 0"
mutation=R11G answer_label="label 1"
mutation=L9C answer_label="label 1"
mutation=Q12P answer_label="label 0"
mutation=D18V answer_label="label 1"
mutation=D18I answer_label="label 1"
mutation=S8L answer_label="label 1"
mutation=S19F answer_label="label 1"
mutation=L3D answer_label="label 1"
mutation=S16R answer_label="label 1"
mutation=S7E answer_label="label 1"
